# measurement.target: T1, human gastric inhibitory peptide receptor (GIPR) (human, UniProt P48546 22-466)
# T1 sequence (looked up): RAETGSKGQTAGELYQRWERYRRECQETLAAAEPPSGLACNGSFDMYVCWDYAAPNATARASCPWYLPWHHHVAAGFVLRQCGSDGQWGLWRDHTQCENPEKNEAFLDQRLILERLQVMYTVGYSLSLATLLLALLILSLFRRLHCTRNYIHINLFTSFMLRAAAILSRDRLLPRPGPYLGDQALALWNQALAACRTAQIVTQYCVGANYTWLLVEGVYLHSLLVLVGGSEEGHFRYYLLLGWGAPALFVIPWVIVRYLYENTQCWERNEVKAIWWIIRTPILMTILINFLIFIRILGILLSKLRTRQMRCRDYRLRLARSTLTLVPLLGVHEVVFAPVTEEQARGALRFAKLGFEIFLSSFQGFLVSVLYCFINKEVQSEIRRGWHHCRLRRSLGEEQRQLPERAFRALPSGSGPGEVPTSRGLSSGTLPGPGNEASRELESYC
# test.summary: cell-based or functional assay
Square brackets hold non-standard residues; d marks the D form. Ends that are not written are not given here. αMePhe(2-F) = C[C@](N)(Cc1ccccc1F)C(=O)O; αMeF = C[C@](N)(Cc1ccccc1)C(=O)O; Aib = CC(C)(N)C(=O)O
readout.label: hGIPR cAMP EC50 ratio
Response field accepts a number only; no unit should be typed.

Q: Form field: reported hGIPR cAMP EC50 ratio of Y[Aib]EGT[αMePhe(2-F)]TSDYSIXLDEKAQ[Aib]EFISYLIEGGPSSGAPPPS-NH2 (not fully specified (residues 13, 17); printed as Y-Aib-EGT-αMeF(2F)-TSDYSI-αMeF-LDEK((2-[2-(2-Amino-ethoxy)-ethoxy]-acetyl)2-(γ-Glu)-CO-(CH2)18-CO2H)AQ-Aib-EFISYLIEGGPSSGAPPPS-NH2) [Example 150]
Ans: 2.64

Further cases:
Q: Form field: reported hGIPR cAMP EC50 ratio of Y[Aib]EGT[αMeF]TSDYSIXLDKKAQ[Aib]HFIEYLIEGGPSSGAPPPS-NH2 (not fully specified (residues 13, 17); printed as Y-Aib-EGT-αMeF-TSDYSI-αMeF-LDKK((2-[2-(2-Amino-ethoxy)-ethoxy]-acetyl)2-(γ-Glu)-CO-(CH2)18-CO2H)AQ-Aib-HFIEYLIEGGPSSGAPPPS-NH2) [Example 142]
Ans: 2.84
